Where do these numbers come from? They come from BindingDB's records for patent US20240140938.

Target sequence: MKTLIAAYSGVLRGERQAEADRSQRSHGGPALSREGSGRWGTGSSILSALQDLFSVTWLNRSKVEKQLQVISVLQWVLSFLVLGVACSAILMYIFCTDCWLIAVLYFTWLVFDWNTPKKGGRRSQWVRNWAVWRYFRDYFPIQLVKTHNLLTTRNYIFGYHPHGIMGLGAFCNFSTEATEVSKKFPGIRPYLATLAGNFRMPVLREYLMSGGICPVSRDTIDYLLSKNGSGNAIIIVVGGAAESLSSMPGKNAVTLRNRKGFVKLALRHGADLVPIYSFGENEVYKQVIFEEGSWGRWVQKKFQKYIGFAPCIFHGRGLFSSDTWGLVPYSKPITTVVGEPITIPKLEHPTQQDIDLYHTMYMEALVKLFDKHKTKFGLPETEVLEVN
pIC50: −log10 of the molar value.
Measured Parameter: pIC50

>>> value("CC(C)n1nc(-c2cccc(C(C)(F)F)c2)c2c1C[C@H](C(=O)NC1(C)CS(=O)(=O)C1)CC2 [US20240140938, Example 102]")
5.05
